- Assay remarks: CREB reporter modulators without forskolin, primary screen, cell-based, PC12, CRE-LacZ reporter, unstimulated (AID 1145)
- Condition details: no forskolin, luminescence, 4.5 h, called active from +8 up or from −8 down
Activity calls are given as the source filed them.
# output must be one of active, inactive

The examples below pair each entry with its known result.
{"columns": ["Sample smiles", "Category label"],
 "data": [
  ["COc1ccc(CCNC(=O)[C@@H]2c3ccccc3C(=O)N(Cc3cc(C(F)(F)F)cc(C(F)(F)F)c3)[C@H]2c2ccc(CO)cc2)cc1", "inactive"],
  ["CCOC(=O)C[C@H]1[C@H](OC(=O)Cc2ccc3c(c2)OCO3)[C@@H](NC(=O)CC(C)C)c2cc(OCCCO)ccc2N1C(=O)Cc1ccc(OC)cc1", "inactive"],
  ["C=CCN1C(=O)[C@@]2(O[C@@H](CCn3cc([C@H](O)c4ccccc4)nn3)[C@H]([Si](C)(C)c3ccc(OC)cc3)[C@H]2C)c2cc(N3CCC3=O)ccc21", "active"]
]}

Recorded call for O=C1O[C@@H](c2ccccc2)[C@@H](c2ccccc2)N2[C@@H](c3ccc(O)cc3)[C@]3(C(=O)Nc4ccc(C#CC5(O)CCCCCC5)cc43)[C@@H](C(=O)NC[C@H](O)c3ccccc3)[C@H]12 ?
inactive

And what about the compound CO[C@]12C=C(Br)[C@@H](C[C@@H]1c1cccc(C)c1)[C@@]1(CO1)C2=O ?
inactive

How about this compound: COC(=O)[C@@]1(Cc2ccccc2)[C@H]2c3cc(C(=O)N(C)C)n(CCN4CNCC4=O)c3C[C@H]2CN1C(=O)c1ccccc1
inactive

Values from PubChem BioAssay
